Recorded values, source ChEMBL document CHEMBL3217718.

# EXPERIMENT NOTES: Solubility of the compound in serum at pH 7.4
# Assay type: ADME
READOUT LABEL: solubility

smi=[Na+].[O-]c1nc2c(O)nc(O)nc2[nH]1 readout_label=solubility val="70 µg/mL"

----------
# EXPERIMENT NOTES: Solubility of the compound in PBS buffer at pH 7.4 at 37 degC
# Type: physicochemical
READOUT LABEL: solubility

compound=O=C1Cc2cc(O)ccc2N1 val="225 µg/mL"
compound="O=c1[nH]c(=O)c2[nH]c(=O)[nH]c2[nH]1 [URIC ACID]" val="53 µg/mL"
compound=O=c1[nH]c2ccc(O)cc2[nH]1 val="65 µg/mL"
compound=O=c1[nH]c2ccc(O)nc2[nH]1 val="82 µg/mL"

----------
# Test system: HL-60
# EXPERIMENT NOTES: Cytotoxicity against human HL60 cells assessed as cell viability up to 120 uM after 24 hrs by trypan blue assay
# Format: cell-based
# DETAILS: hl-60, 24 h
READOUT LABEL: Activity

compound=O=c1[nH]c(=O)c2[nH]c(=O)[nH]c2[nH]1 tested_system=HL-60 val=Non-toxic
compound="Oc1ccc(O)cc1 [HYDROQUINONE]" tested_system=HL-60 val=Toxic
compound=O=c1[nH]c2ccc(O)cc2[nH]1 tested_system=HL-60 val=Non-toxic
compound=O=c1[nH]c2ccc(O)nc2[nH]1 tested_system=HL-60 val=Non-toxic
compound=O=C1Cc2cc(O)ccc2N1 tested_system=HL-60 val=Non-toxic
compound=Nc1ccc(O)cc1 tested_system=HL-60 val=Toxic
